Test system: platelet aggregation induced by PAF
Assay: Test 1: inhibition of platelet aggregation induced by PAF in vitro (rabbit platelet rich plasma, Born nephelometric technique)
Format: cell-based, male New Zealand albino rabbits
Conditions: Oryctolagus cuniculus, Platelet, PAF C18 16 nM final, read-out: IC50 (concentration of the drug needed to inhibit the platelet aggregation in a 50%)
measured-property: pIC50
Notebook: values listed as pIC50 are -log10 of the concentration (mol/L).

In [3]: df
Out[3]:
                                   molecule  value_observed
0  CCCCCCCCCCCCCCC1COC(COCCCCCC[n+]2cccc3ccccc32)C1 (racemic)            5.47
1  CCCCCCCCCCCCCCCCOCC1COC(COC(=O)N(Cc2cccc[n+]2C)C(C)=O)C1 (racemic)            7.00
2  CCCCCCCCCCCCCCC1COC(COC(=O)CCCCC[n+]2ccccc2)C1 (racemic)            3.92

Prompt: Returns the measured pIC50 for the input molecule. Input: CCCCCCCCCCCCCCC1COC(COC(=O)CCCCC[n+]2ccn(C)c2)C1 (racemic)
Response: 3.68

Prompt: Query (molecule): CCCCCCCCCCCCCCCCCCOCC1CC(COC(=O)NCc2cccc[n+]2C)CO1 (racemic) ; field requested: pIC50
Response: 5.80

Prompt: Name the recorded pIC50 for CCCCCCCCCCCCCCCCCCOCC1CC(COC(=O)CCCCC[n+]2ccsc2)CO1 (racemic) .
Response: 5.82

Origin of the recorded values: patent US4997843A
